system: S. aureus
quantity.name: MIC (µM)

Cc1ccc(-c2[nH][nH]c(=O)c2-c2nc3ccccc3s2)cc1 [Compound 16c]	25
Nc1c(C(=O)Nc2ccccc2)cc(-c2nc3ccccc3s2)c(=O)n1NS(=O)(=O)c1ccc(Cl)cc1	906
CC1(C)S[C@@H]2[C@H](NC(=O)[C@H](N)c3ccccc3)C(=O)N2[C@H]1C(=O)O [Ampicillin, reference compound]	179
O=c1[nH]c(-c2ccc(Cl)cc2)ccc1-c1nc2ccccc2s1 [Compound 12a]	369

###

Entries and their inhibition at 10 µg/mL values follow.
target: DHPS enzyme (dihydropteroate synthase) (Bacillus anthracis); test: biochemical; conditions: 10 μg/mL; read-out: Inhibition % against DHPS enzyme
Sequence (Q81VW8 1-280): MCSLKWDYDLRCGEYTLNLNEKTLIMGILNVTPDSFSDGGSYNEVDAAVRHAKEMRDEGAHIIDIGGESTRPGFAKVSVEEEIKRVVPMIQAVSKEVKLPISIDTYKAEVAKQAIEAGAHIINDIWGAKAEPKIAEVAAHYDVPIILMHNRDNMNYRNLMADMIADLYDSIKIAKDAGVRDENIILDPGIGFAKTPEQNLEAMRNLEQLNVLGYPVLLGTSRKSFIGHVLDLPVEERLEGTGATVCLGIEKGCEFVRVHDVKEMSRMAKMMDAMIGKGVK
quantity.name: inhibition at 10 µg/mL (%)

Cc1ccc(/C=C(/C(=O)NNS(=O)(=O)c2ccc(C)cc2)c2nc3ccccc3s2)cc1 [Compound 14c]	46
O=c1[nH][nH]c(-c2ccc(F)cc2)c1-c1nc2ccccc2s1 [Compound 16a]	49
O=c1[nH][nH]c(-c2ccc(Cl)cc2)c1-c1nc2ccccc2s1 [Compound 16b]	52
Cc1ccc(-c2[nH][nH]c(=O)c2-c2nc3ccccc3s2)cc1 [Compound 16c]	48
Cc1ccc(S(=O)(=O)NNC(=O)/C(=C/c2ccc(Cl)cc2)c2nc3ccccc3s2)cc1 [Compound 14b]	47
O=c1[nH]c(-c2ccc(Cl)cc2)ccc1-c1nc2ccccc2s1 [Compound 12a]	44

###

# key: entry, value: zone of inhibition at 15000 µg/mL
system: K. pneumonia (ATCC: 4415); assay: Agar well diffusion, inhibition zone, K. pneumonia; assay type: cell-based; settings: Klebsiella pneumoniae; agar well diffusion, 15 mg/mL, 100 μL per well, 37 °C 24 h, mean ± SD, triplicate; read-out: Diameter of the Inhibition Zone, K. pneumonia
quantity.name: zone of inhibition at 15000 µg/mL (mm)

Nc1ccc(S(=O)(=O)Nc2ncccn2)cc1 [Sulfadiazine, reference compound]	15.9
Cc1ccc(S(=O)(=O)NNC(=O)/C(=C/c2ccc(Cl)cc2)c2nc3ccccc3s2)cc1 [Compound 14b]	15.6
O=c1[nH][nH]c(-c2ccc(F)cc2)c1-c1nc2ccccc2s1 [Compound 16a]	17.3
Cc1ccc(-c2[nH][nH]c(=O)c2-c2nc3ccccc3s2)cc1 [Compound 16c]	24.3

###

biological target: UniProt:Q81VW8
pIC50: −log10 of the molar value.
Listed next: entries and their corresponding pIC50.
quantity.name: pIC50

O=c1[nH][nH]c(-c2ccc(F)cc2)c1-c1nc2ccccc2s1 [Compound 16a]	4.45
Cc1ccc(S(=O)(=O)NNC(=O)/C(=C/c2ccc(Cl)cc2)c2nc3ccccc3s2)cc1 [Compound 14b]	4.46
O=c1[nH]c(-c2ccc(Cl)cc2)ccc1-c1nc2ccccc2s1 [Compound 12a]	4.08
Cc1ccc(/C=C(/C(=O)NNS(=O)(=O)c2ccc(C)cc2)c2nc3ccccc3s2)cc1 [Compound 14c]	4.25
Cc1ccc(-c2[nH][nH]c(=O)c2-c2nc3ccccc3s2)cc1 [Compound 16c]	4.45
O=c1[nH][nH]c(-c2ccc(Cl)cc2)c1-c1nc2ccccc2s1 [Compound 16b]	4.62
Nc1ccc(S(=O)(=O)Nc2ncccn2)cc1 [Sulfadiazine, reference compound]	4.55

###

Endpoint: MIC. System: S. aureus. Items follow.
quantity.name: MIC (µM)

O=c1[nH][nH]c(-c2ccc(Cl)cc2)c1-c1nc2ccccc2s1 [Compound 16b]	191
Cc1ccc(S(=O)(=O)NNC(=O)/C(=C/c2ccc(F)cc2)c2nc3ccccc3s2)cc1 [Compound 14a]	1070
Cc1ccc(S(=O)(=O)NNC(=O)/C(=C/c2ccc(Cl)cc2)c2nc3ccccc3s2)cc1 [Compound 14b]	129
O=c1[nH][nH]c(-c2ccc(F)cc2)c1-c1nc2ccccc2s1 [Compound 16a]	1610
Cc1ccc(/C=C(/C(=O)NNS(=O)(=O)c2ccc(C)cc2)c2nc3ccccc3s2)cc1 [Compound 14c]	135
O=c1[nH]c(-c2ccc(Br)cc2)ccc1-c1nc2ccccc2s1 [Compound 12b]	2610
Nc1ccc(S(=O)(=O)Nc2ncccn2)cc1 [Sulfadiazine, reference compound]	2000
Nc1c(C(=O)Nc2ccc(Cl)cc2)cc(-c2nc3ccccc3s2)c(=O)n1NS(=O)(=O)c1ccc(Cl)cc1	1700
